Parameter: ratio of OD450 to negative control. Scope: all listed entries.
# Tested system: T1, Cynomolgus monkey NKp46 for immunization, screening, and testing (Kactus, NKP-CM146) (cynomolgus monkey, UniProt Q95JB9 22-254)
# T1 construct: Bought protein; also called monkey NKp46 antigen protein; cynomolgus monkey NKp46 antigen
# T1 sequence (Q95JB9 other isoform, or with tags, fused parts or gaps limits assumed): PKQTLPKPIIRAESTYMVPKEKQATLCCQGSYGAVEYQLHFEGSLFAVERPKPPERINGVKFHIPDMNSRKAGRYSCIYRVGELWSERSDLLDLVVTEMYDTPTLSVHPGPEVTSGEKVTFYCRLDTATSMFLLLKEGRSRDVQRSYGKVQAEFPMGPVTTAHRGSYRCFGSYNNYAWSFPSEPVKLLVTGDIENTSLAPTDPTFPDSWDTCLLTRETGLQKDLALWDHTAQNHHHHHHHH
# Assay method text: ELISA, coated antigen, VHH supernatant, anti-Myc HRP

Take a look at these entries with their results.
NKp46-PA31 VHH (his and c-Myc labels) (VHH, IPTG-induced E. coli supernatant used in the screening ELISA; also called NKp46-PA31 clone supernatant; not shown: his and c-Myc labels) VHH: DVQLVESGGGLVQAGDSLRLSCAVSGRTFSRLPMGWFRQGPGKDREFVAAISWSSSTTYYADSVKGRFFISRDNAKNTAYLQMNNLRLEDTAVYYCAAVGGSLDYSATVVYTAARAYADWGQGTLVTVSS = > 3
NKp46-PA29 VHH (his and c-Myc labels) (VHH, IPTG-induced E. coli supernatant used in the screening ELISA; also called NKp46-PA29 clone supernatant; not shown: his and c-Myc labels) VHH: QVQLVESGGGWVQPGGSLRLSCAASGRTYSIYGMGWFRQAPGKEREIVAAINWNSGHTYYADSVKGRFTISRDNAKNTHYLQMNSLKPEDTAVYYCAADSIIGLSFTVKDYDYWGQGTQVTVSS = > 3
NKp46-PA28 VHH (his and c-Myc labels) (VHH, IPTG-induced E. coli supernatant used in the screening ELISA; also called NKp46-PA28 clone supernatant; not shown: his and c-Myc labels) VHH: QVQLVESGGGLVQAGDSLRLSCVASGRTFSTYAMGWFRQAPGKEREFVAAISRNADTTYYADSVKGRFTISRDNAKNTVYLQMNSLKPEDTAVYYCAADRYSSNTQVGVARTYYDYWGQGTQVTVSS = > 3

[Q] Look up ratio of OD450 to negative control: NKp46-PA34 VHH (his and c-Myc labels) (VHH, IPTG-induced E. coli supernatant used in the screening ELISA; also called NKp46-PA34 clone supernatant; not shown: his and c-Myc labels) VHH: QVQLVESGGGLVQTGGSLRLSCAASGSTSSFYRMGWFRQAPGKEREAVARISSSAGLIYYVDSVKGRFTISRAGAKNTVYLQMNSLKPEDTAVYYCAADRHGTRWDYWGQGTQVTVSS
[A] > 3
